Target: Mucosa-associated lymphoid tissue lymphoma translocation protein 1 (Homo sapiens, UniProt Q9UDY8)
Sequence (Q9UDY8 whole entry): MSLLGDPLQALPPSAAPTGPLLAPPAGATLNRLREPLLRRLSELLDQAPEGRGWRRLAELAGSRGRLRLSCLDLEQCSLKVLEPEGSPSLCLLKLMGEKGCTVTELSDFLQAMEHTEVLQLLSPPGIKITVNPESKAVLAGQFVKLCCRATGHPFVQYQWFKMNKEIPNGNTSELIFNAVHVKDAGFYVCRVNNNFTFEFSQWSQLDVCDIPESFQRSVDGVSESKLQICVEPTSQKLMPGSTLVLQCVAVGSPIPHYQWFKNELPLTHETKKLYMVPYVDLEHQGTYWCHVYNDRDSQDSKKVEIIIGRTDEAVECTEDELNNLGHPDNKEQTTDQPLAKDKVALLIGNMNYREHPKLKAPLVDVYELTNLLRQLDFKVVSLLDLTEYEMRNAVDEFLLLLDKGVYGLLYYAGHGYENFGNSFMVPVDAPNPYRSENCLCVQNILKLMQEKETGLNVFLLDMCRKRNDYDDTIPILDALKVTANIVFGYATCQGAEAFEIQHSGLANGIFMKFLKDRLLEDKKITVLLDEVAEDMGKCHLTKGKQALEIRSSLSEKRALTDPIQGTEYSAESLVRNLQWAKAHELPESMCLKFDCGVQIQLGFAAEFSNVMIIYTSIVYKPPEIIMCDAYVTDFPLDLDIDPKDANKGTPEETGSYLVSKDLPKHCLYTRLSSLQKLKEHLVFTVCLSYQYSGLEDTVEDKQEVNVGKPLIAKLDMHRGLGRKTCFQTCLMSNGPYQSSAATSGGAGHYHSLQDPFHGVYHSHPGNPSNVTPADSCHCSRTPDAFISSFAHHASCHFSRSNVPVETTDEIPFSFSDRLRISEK
Give pIC50 for every item shown.
Interpret pIC50 as the negative base-10 log of the concentration measured in mol/L.

Provide pIC50 value for the following compound: CN(C(=O)C1CCS(=O)(=O)CC1)[C@@H](c1ccc(N2CCC3(CC3)c3c2cnc2cc(Cl)nn32)cc1)C(F)(F)F [US20250051327, Reference CPD0019590]
7.19

In one line, give reported pIC50 of the entry C[C@H]1CCN(c2ccc([C@H](N(C)C(=O)[C@H]3CC[S@](=N)(=O)CC3)C(F)(F)F)cc2)c2cnc3cc(F)nn3c21 (relative stereo) [US20250051327, Reference CPD0074553] .
7.41

Tell me pIC50 reported for CO[C@@H](C)c1c(Nc2ccc([C@H](N(C)C(=O)CN3CCN(C)CC3)C(F)(F)F)cc2)cnn2cc(Cl)nc12 [US20250051327, Reference CPD0084933]
6.86

====

Can you tell me pIC50 for the items I'm about to list?
Biological target: Mucosa-associated lymphoid tissue lymphoma translocation protein 1 (Homo sapiens, UniProt Q9UDY8)
pIC50 is a log-scale quantity: -log10 of the concentration expressed in molar.

Give pIC50 for CO[C@@H](C)c1c(Nc2ccc([C@H](N(C)C(=O)[C@@H]3CCC(=O)N3)C(F)(F)F)cc2)cnn2cc(Cl)nc12 [US20250051327, Reference CPD0082470]
7.35

Fill in pIC50 for record COc1ccc2ncc(Nc3ccc([C@H](N(C)C(=O)C4CCS(=O)(=O)CC4)C(F)(F)F)cc3)c([C@H]3CCOC3)c2n1 [US20250051327, Reference CPD0074039]
6.86

Give the measured pIC50 for COc1ccc2ncc(Nc3ccc([C@H](N(C)C(=O)C4CCS(=O)(=O)CC4)C(F)(F)F)cc3)c([C@H]3CCCO3)c2n1 (relative stereo) [US20250051327, Reference CPD0074043]
6.97

Retrieve pIC50 measured for COc1ccc2ncc(Nc3ccc([C@H](N(C)C(=O)C4CCN(C(C)=O)CC4)C(F)(F)F)cc3)c([C@H](C)OC)c2n1 (relative stereo) [US20250051327, Reference CPD0074559] and print it.
6.82

Complete the entry with pIC50 for CO[C@@H](C)c1c(Nc2ccc([C@H](N(C)C(=O)[C@H]3CCN(C(=O)CO)C3)C(F)(F)F)cc2)cnn2cc(Cl)nc12 (relative stereo) [US20250051327, Reference CPD0084139]
7.28

Indicate its recorded pIC50; the compound in question is CO[C@@H](C)c1c(Nc2ccc([C@H](N(C)C(=O)[C@@H]3CCN(C(=O)CO)C3)C(F)(F)F)cc2)cnn2cc(Cl)nc12 (relative stereo) [US20250051327, Reference CPD0084140]
7.35

Supply recorded pIC50 for COc1ccc2ncc(Nc3ccc([C@H](N(C)C(=O)[C@H]4CCC(=O)N4)C(F)(F)F)cc3)c([C@H](C)OC)c2n1 (relative stereo) [US20250051327, Reference CPD0075581] here.
7.43

Look up and state reported pIC50 for CN(C(=O)[C@H]1CS(=O)(=O)CC12COC2)[C@@H](c1ccc(N2CCCc3c2cnc2cc(Cl)nn32)cc1)C(F)(F)F [US20250051327, Reference CPD0073975]
6.95

Check the records and state pIC50 for COC[C@@H]1CCN(c2ccc([C@H](N(C)C(=O)C3CCS(=O)(=O)CC3)C(F)(F)F)cc2)c2cnc3cc(Cl)nn3c21 [US20250051327, Reference CPD0073503]
6.94

Please give the documented pIC50 of COc1ccc2ncc(Nc3ccc([C@H](N(C)C(=O)C4CCS(=O)(=O)CC4)C(F)(F)F)cn3)c([C@@H](C)OC)c2n1 (relative stereo) [US20250051327, Reference CPD0019006]
6.86

====

quantityMeasured: pIC50
Keep in mind that pIC50 stands for -log10 of concentration in molar terms.

Give pIC50 for this entry on Mucosa-associated lymphoid tissue lymphoma translocation protein 1 (Homo sapiens): CN(C(=O)C1CCS(=O)(=O)CC1)[C@@H](c1ccc(N2CC[C@]3(CCOC3)c3c2cnc2cc(Cl)nn32)cc1)C(F)(F)F [US20250051327, Reference CPD0073763]
7.24

Lab note: Mucosa-associated lymphoid tissue lymphoma translocation protein 1 (Homo sapiens) assay, enter pIC50 for COc1ccc2ncc(Nc3ccc([C@H](N(C)C(=O)[C@H]4CNC(=O)C4)C(F)(F)F)cc3)c([C@H](C)OC)c2n1 (relative stereo) [US20250051327, Reference CPD0074562] here
7.10

Enter measured pIC50, system Mucosa-associated lymphoid tissue lymphoma translocation protein 1 (Homo sapiens), for the molecule shown: COc1ccc2ncc(Nc3ccc([C@H](N(C)C(=O)[C@@H]4CNC(=O)C4)C(F)(F)F)cc3)c([C@H](C)OC)c2n1 (relative stereo) [US20250051327, Reference CPD0074550]
7.09

Look up Mucosa-associated lymphoid tissue lymphoma translocation protein 1 (Homo sapiens) data: pIC50 of COc1ccc2ncc(Nc3ccc([C@H](N(C)C(=O)C4CCS(=O)(=O)CC4)C(F)(F)F)cn3)c(C(C)OC)c2n1 (stereo not given in full) [US20250051327, Reference CPD0019007] , then report it.
6.62

Please respond with reported pIC50 (system Mucosa-associated lymphoid tissue lymphoma translocation protein 1 (Homo sapiens)) for CN(C(=O)[C@@H]1CS(=O)(=O)CC12COC2)[C@@H](c1ccc(N2CCCc3c2cnc2cc(Cl)nn32)cc1)C(F)(F)F [US20250051327, Reference CPD0073974] .
6.81

Send back Mucosa-associated lymphoid tissue lymphoma translocation protein 1 (Homo sapiens) pIC50 of CN(C(=O)[C@@H]1CCN(C(=O)CC#N)C1)[C@@H](c1ccc(N2CCCc3c2cnc2cc(Cl)nn32)cc1)C(F)(F)F [US20250051327, Reference CPD0073190] only.
6.94

Specify pIC50 for CN(C(=O)[C@H]1CC[S@](=N)(=O)CC1)[C@@H](c1ccc(N2CC(C)(C)Cc3c2cnc2cc(Cl)nn32)cc1)C(F)(F)F [US20250051327, Reference CPD0073497] , system Mucosa-associated lymphoid tissue lymphoma translocation protein 1 (Homo sapiens).
7.28

Specify pIC50 for CN(C(=O)[C@H]1CC[S@@](=N)(=O)CC1)[C@@H](c1ccc(N2CC(C)(C)Cc3c2cnc2cc(Cl)nn32)cc1)C(F)(F)F [US20250051327, Reference CPD0073498] , system Mucosa-associated lymphoid tissue lymphoma translocation protein 1 (Homo sapiens).
7.28

Recall the reported pIC50 of COc1ccc2ncc(Nc3ccc([C@H](N(C)C(=O)C4CCS(=O)(=O)CC4)C(F)(F)F)cc3)c([C@H](C)OC)c2n1 (relative stereo) [US20250051327, Reference CPD0019170] when tested on Mucosa-associated lymphoid tissue lymphoma translocation protein 1 (Homo sapiens).
7.19

Look up and report pIC50, with Mucosa-associated lymphoid tissue lymphoma translocation protein 1 (Homo sapiens) as system, for COc1ccc2ncc(Nc3ccc([C@H](N(C)C(=O)[C@@H]4CNC(=O)C4)C(F)(F)F)cc3)c([C@@H]3CCOC3)c2n1 [US20250051327, Reference CPD0084142]
7.39
